B1: KLHDC10 (parent)
chain: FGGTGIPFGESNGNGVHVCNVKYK

Variants of: B1
assayRemarks: protein stability index of a GFP-peptide fusion (GPS, HEK-293T) (PSI 1-6); higher = more stable;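 note: lentivirally expressed fusions sorted by FACS into six bins by GFP to DsRed ratio, PSI derived from sequencing read proportions per bin multiplied by bin number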
conditionSummary: c terminus: a fixed tail appended
Assign class by protein stability index: not lower than 2 means 1.0; lower than 2 means 0.0.

Use these answered entries as a reference point.
Problem: Determine whether this variant has protein stability index no lower than 2: "G5W"
Result: 1.0

Problem: Quick check: does "N12A" have protein stability index greater than or equal to 2?
Result: 0.0

Problem: Reported protein stability index reaches at least 2 for "N14S" ?
Result: 0.0

Problem: Please indicate if the recorded protein stability index for "V18M" meets or exceeds 2.
Result: 1.0

Problem: Is protein stability index at least 2? Consider "V21R"
Result: 0.0

Problem: Kindly determine if protein stability index recorded for "F1Y" is above or exactly 2.
Result: 1.0

Problem: Test whether the variant "V21H" records protein stability index of 2 or higher.
Result: 0.0

Problem: // inclusive: protein stability index at least 2? input: "P7C"
Result: 0.0

Problem: Is protein stability index at least 2? Consider "N12Y"
Result: 1.0

Problem: Dear colleague, could you confirm whether "T4P" has protein stability index at or above 2?
Result: 1.0

***
Problem: protein stability index >= 2 for "N20T" ?
Result: 0.0

Problem: Given "H17Q" , state whether its protein stability index is at least 2.
Result: 1.0

Problem: Say whether "C19P" shows protein stability index of 2 or more.
Result: 1.0

Problem: Textbook exercise: given the entry "C19E" , state whether its protein stability index is greater than or equal to 2.
Result: 1.0

Problem: Is reported protein stability index greater than or equal to 2 here: "N20E"
Result: 0.0

Problem: Determine whether this variant has protein stability index no lower than 2: "V21N"
Result: 1.0

Problem: Given the entry "V16R" , answer whether its protein stability index meets or surpasses 2.
Result: 1.0
